Where do these numbers come from? They come from ChEMBL document CHEMBL4387773.

Please provide measured remaining at 10 min for the entries that follow.
# experimentalDetails: Stability in mouse liver microsomes assessed as parent compound remaining after 10 mins
# Type: ADME, Microsome
# statedConditions: liver microsomes, read-out: Stability
The response must be a number in % with no trailing unit.

molecule O=C(O)[C@@H]1C[C@@H]2[C@H](C1)[C@H]2C(=O)N1CC[C@](c2ccc(C(F)(C(F)(F)F)C(F)(F)F)cc2)(S(=O)(=O)c2ccc(F)cc2)C1 , remaining at 10 min observed: 100

The molecule listed as COC[C@]1(C(=O)N2CC[C@](c3ccc(C(F)(C(F)(F)F)C(F)(F)F)cc3)(S(=O)(=O)c3ccc(F)cc3)C2)CC[C@H](C(=O)O)CC1 has a reported remaining at 10 min of 88

# remaining at 10 min (molecule: O=C([C@H]1CC[C@H](CO)CC1)N1CC[C@](c2ccc(C(F)(C(F)(F)F)C(F)(F)F)cc2)(S(=O)(=O)c2ccc(F)cc2)C1 ) is 63

Kindly note the recorded remaining at 10 min for CS(=O)(=O)C1CCC(C(=O)N2CC[C@](c3ccc(C(F)(C(F)(F)F)C(F)(F)F)cc3)(S(=O)(=O)c3ccc(F)cc3)C2)CC1 (stereo in doubt; 28) , which is 69

Please fill in: remaining at 10 min reported for O=C(N1CC[C@](c2ccc(C(F)(C(F)(F)F)C(F)(F)F)cc2)(S(=O)(=O)c2ccc(F)cc2)C1)C1(CO)CCS(=O)(=O)CC1 = 31

// recorded remaining at 10 min for CCC1(C(=O)N2CC[C@](c3ccc(C(F)(C(F)(F)F)C(F)(F)F)cc3)(S(=O)(=O)c3ccc(F)cc3)C2)CCS(=O)(=O)CC1 : 0

// field: remaining at 10 min; key: O=C(N1CC[C@](c2ccc(C(F)(C(F)(F)F)C(F)(F)F)cc2)(S(=O)(=O)c2ccc(F)cc2)C1)C1(O)CCS(=O)(=O)CC1 ; value = 90
